Tested on: MCH58 fibroblasts
METHOD DESCRIPTION: Glucose versus galactose cell growth screen (metabolic state-dependent lethality)
SETTINGS: approximately 10 μM compound, 72 hours; log10 fold change of normalized cell number in glucose versus galactose
Counter-ions that a name gives are not always drawn.
MEASURED ENDPOINT: Sglu/gal (log10 fold change) Score
Field format: numeric only.

Enquiry: Tell me its Sglu/gal (log10 fold change) Score given CO[C@@H]1C[C@@H](C[C@H]2CC[C@H](C)[C@H]([C@@H](C)C(=O)O)O2)O[C@]2(O[C@](C)([C@H]3CC[C@@](C)([C@@H]4O[C@@H]([C@H]5O[C@@](O)(CO)[C@H](C)C[C@@H]5C)C[C@@H]4C)O3)C[C@H]2C)[C@@H]1C [nigericin sodium] as the entry.
Return: −0.31

Enquiry: Tell me its Sglu/gal (log10 fold change) Score given COc1c(-c2coc3cc4c(cc3c2=O)CC(O)C(C)(C)O4)ccc2c1C=CC(C)(C)O2 (centres unmarked) [Mundulone] as the entry.
Return: 0.50

Enquiry: Tell me its Sglu/gal (log10 fold change) Score given Nc1c2ccccc2nc2ccccc12 [aminacrine] as the entry.
Return: −0.29

Enquiry: Tell me its Sglu/gal (log10 fold change) Score given Clc1ccc(C(Cn2ccnc2)OCc2csc3c(Cl)cccc23)c(Cl)c1 (centres unmarked) [Sertaconazole nitrate] as the entry.
Return: 0.19

Enquiry: Tell me its Sglu/gal (log10 fold change) Score given CC[C@@]1(O)C[C@H](O[C@H]2C[C@H](N(C)C)[C@H](O)[C@H](C)O2)c2c(cc3c(c2O)C(=O)c2c(O)cccc2C3=O)[C@H]1C(=O)OC [aklavine hydrochloride] as the entry.
Return: −0.33

Enquiry: Tell me its Sglu/gal (log10 fold change) Score given Cc1cc(N)c2ccccc2[n+]1CCCCCCCCCC[n+]1c(C)cc(N)c2ccccc21 [Dequalinium dichloride] as the entry.
Return: 0.42

Enquiry: Tell me its Sglu/gal (log10 fold change) Score given CN[C@H]1CC[C@@H](c2ccc(Cl)c(Cl)c2)c2ccccc21 [Sertraline hydrochloride] as the entry.
Return: 0.15

Enquiry: Tell me its Sglu/gal (log10 fold change) Score given C=C1CC[C@@H]2[C@](C)(CO)[C@H](O)CC[C@@]2(C)[C@@H]1C/C=C1/C(=O)OC[C@H]1O [andrographolide] as the entry.
Return: −0.46

Enquiry: Tell me its Sglu/gal (log10 fold change) Score given COc1cc2c(cc1OC)[C@@H]1C(=O)c3c(O)cc4c(c3O[C@@H]1CO2)C=CC(C)(C)O4 [Alpha-toxicarol] as the entry.
Return: 0.91

Enquiry: Tell me its Sglu/gal (log10 fold change) Score given CO[C@H]1C=C[C@@]23c4cc5c(cc4CN(C[C@@H]2O)[C@H]3C1)OCO5 [crinamine] as the entry.
Return: −0.22

Enquiry: Tell me its Sglu/gal (log10 fold change) Score given COc1ccc(C[C@H]2NC[C@H](O)[C@H]2OC(C)=O)cc1 [anisomycin] as the entry.
Return: −0.24

Enquiry: Tell me its Sglu/gal (log10 fold change) Score given O=c1[nH]c2ccccc2n1C1CCN(CCCC(c2ccc(F)cc2)c2ccc(F)cc2)CC1 [Pimozide] as the entry.
Return: 0.18

Enquiry: Tell me its Sglu/gal (log10 fold change) Score given CCOC(=O)C1=C[C@]2(CC)CCCN3CCc4c(n1c1ccccc41)[C@@H]32 [Vinpocetine] as the entry.
Return: 0.23

Enquiry: Tell me its Sglu/gal (log10 fold change) Score given Cl.Cl.O=C1c2c(O)ccc(O)c2C(=O)c2c(NCCNCCO)ccc(NCCNCCO)c21 [mitoxanthrone hydrochloride] as the entry.
Return: −0.73
